Provenance of the data: the supplement of paper PMC12042874

test-name: amyloid nucleation score (Sup35N fusion, yeast selection) (log enrichment); library NNK2; higher = more nucleation; inactive = no reads after selection;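 also: zero at mode of non-aggregating sequences after 7 days selection at 30°C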
The label depends only on amyloid nucleation score: 1 if it is at least -1, -1 if it is smaller.

These recorded examples may help you get a feel for the data.
polymer_sequence=VICRGITVARWSF category=1
polymer_sequence=LALSWRNDSYNLKNVLRLLG category=-1
polymer_sequence=KTRHKVLRKDL category=-1
polymer_sequence=CTAHYYCQGCWTSRMLNLTA category=1

Field: next sequence
Q: For this sequence, is measured amyloid nucleation score -1 or higher? FCPFWDSWWGKPCRPAIDSA
Ans: 1
